# Tested on: Zika virus NS2B-NS3 protease (unlinked complex)
# assay-text: Confirmatory screen GU AMC qHTS for Zika virus inhibitors (AID 1347153); further: nearly all actives have a fitted effect of over 70% in size
# measurement-conditions: Recombinant NS2B-NS3 protease, AMC substrate fluorescence; series mostly up to 111 µM
Records with an inconclusive call do not appear. The source made the active and inactive calls. The call rests on the fitted dose curve; in most records, active means well fitted inhibition curve with a large enough effect; inconclusive means small, poorly fitted or top-dose-only effect; inactive means flat fitted curve, though single readings scatter.
Pick from active, inactive when you respond.

// known answers, use as guide
[
  {
    "compound": "N#Cc1ccccc1S(=O)(=O)N[C@H]1CO[C@H]2[C@@H]1OC[C@H]2OC(=O)Nc1ccc(Oc2ccccc2)cc1",
    "qualitative-label": "inactive"
  },
  {
    "compound": "O=C(O)c1c(Sc2ccccc2)c2cc(Cl)ccc2n1Cc1ccc(Cl)cc1",
    "qualitative-label": "active"
  },
  {
    "compound": "CN(CC(=O)N(Cc1ccc(C2CCCCC2)cc1)c1ccc(C(=O)O)cc1)S(=O)(=O)c1c(F)c(F)c(F)c(F)c1F",
    "qualitative-label": "active"
  },
  {
    "compound": "O=C(Nc1cccc2ccccc12)O[C@@H]1CO[C@H]2[C@@H]1OC[C@@H]2NS(=O)(=O)c1ccc2ccccc2c1",
    "qualitative-label": "inactive"
  },
  {
    "compound": "Cc1cc(C)cc(C(=O)N(C)[C@H](Cc2ccc(-c3ccccc3)cc2)C(=O)N[C@@H](Cc2c[nH]c3ccccc23)C(=O)O)c1",
    "qualitative-label": "active"
  }
]

Per the assay record, what outcome was assigned to CC(C)=CCCC1(C)C=Cc2c(O)c3c(c(CC=C(C)C)c2O1)OC12C(=CCCC1C(C)(C)O[C@@]2(C/C=C(\C)C(=O)O)C(=O)O)C3=O (stereo partly drawn) ?
active

And for `COc1ccccc1N1CCN(CCn2c(=O)c3c(c4ccccc4n3C)n(C)c2=O)CC1` ?
active

And for `Cc1c2ccccc2c(CSC(=N)N)c2ccccc12` ?
inactive

* * *

# assay-text: qHTS for Inhibitors of Plasmodium falciparum (CP250) proliferation (AID 504320)
# measurement-conditions: P. falciparum CP250 in erythrocytes, SYBR Green DNA, 72 h; series mostly up to 6.7 µM
Records with an inconclusive call do not appear. Activity calls are given as the source filed them. Calls come from the whole dose curve; as a rule, active = well fitted inhibition curve with a large enough effect; inconclusive = small, poorly fitted or top-dose-only effect, or effect the other way; inactive = flat fitted curve, though single readings scatter.
reported-metric: outcome

Worked cases, outcome given:
[
  {
    "molecule": "CC1=CC[C@@H](COc2ccccc2)O[C@@]2(C1)C(=O)N(Cc1ccc(Br)cc1)c1ccccc12",
    "outcome": "inactive"
  },
  {
    "molecule": "CCOC(=O)C1=CN(CCC=C(C)C)C(=O)N(C(C)=O)C1c1ccccc1 (centres undefined)",
    "outcome": "inactive"
  },
  {
    "molecule": "C=CCC12C=C(OC)C(=O)C(C1=O)C1c3ccccc3CC12 (centres undefined)",
    "outcome": "inactive"
  },
  {
    "molecule": "COC(=O)C[C@H]1c2ccccc2C2=C(C[C@@H](C)[C@H]3C(=O)N(c4ccccc4)C(=O)[C@@H]23)N1C(=O)OC",
    "outcome": "inactive"
  }
]

Value sought for every listed molecule: outcome.
1. C=CCOC(=O)N[C@@H](c1coc2ccccc2c1=O)[C@@H](C)C=CCC(=O)OC
2. CC(=O)C1=C(C)N(Cc2ccccc2)C(=O)NC1c1ccco1 (centres undefined)

1. inactive
2. inactive

Value sought for every listed molecule: outcome.
1. COCCN1C(=O)NC(c2ccco2)C(C(=O)OC)=C1C (centres undefined)
2. COC(=O)C1=C(C(=O)OC)[C@@H]2N(C)c3ccc(OC)cc3[C@@]23C[C@@H](C(=O)OC)N(C(=O)N2CCNC2=O)C3=N1
3. C[C@H]1C[C@@H](C)O[C@@]2(C1)C(=O)N(Cc1ccccc1C(F)(F)F)c1ccccc12

1. inactive
2. inactive
3. inactive

* * *

# Tested on: Tov-21-G
# assay-text: Primary qHTS to identify gynecologic anti-cancer compounds using libraries of approved drugs and bioactive compounds (AID 1345084); further: nearly all actives have a fitted effect of over 55% in size
# measurement-conditions: Gynecologic cancer cell panel viability, ATPlite luminescence, 48 h; series mostly up to 57.5 µM
Inconclusive results are not listed. Calls of active or inactive are those of the source. Calls come from the whole dose curve; as a rule, active = well fitted cell-killing curve with a large enough effect; inconclusive = small, poorly fitted or top-dose-only effect, or effect the other way; inactive = flat fitted curve, though single readings scatter.
Pick from active, inactive when you respond.

// known answers, use as guide
[
  {
    "compound": "COc1cc(-c2cc(-c3ccc(N4CCNCC4)cc3)cnc2C)cc(OC)c1OC",
    "qualitative-label": "inactive"
  },
  {
    "compound": "CC1(CO)CCCC2(C)C1C(OC(=O)c1ccccc1)C=C1C(=O)OCC12O (stereo not given)",
    "qualitative-label": "active"
  },
  {
    "compound": "CC[C@]1(O)C[C@H]2CN(CCC3C(=Nc4ccccc43)[C@@](C(=O)OC)(c3cc4c(cc3OC)N(C)[C@H]3[C@@](O)(C(N)=O)[C@H](O)[C@]5(CC)C=CCN6CC[C@]43[C@@H]65)C2)C1 (stereo not given in full)",
    "qualitative-label": "active"
  },
  {
    "compound": "N#CCC(C1CCCC1)n1cc(-c2ncnc3[nH]ccc23)cn1 (stereo not given)",
    "qualitative-label": "inactive"
  }
]

Let's switch to this compound now.
Per the assay record, what outcome was assigned to `CC(C)(C)c1ccc(CNC(=S)NCc2ccc(NS(C)(=O)=O)c(F)c2)cc1` ?
inactive

* * *

# Test system: CP237
# assay-text: qHTS profiling for inhibitors of Plasmodium falciparum proliferation (AID 504749); further: potency means the concentration at half of the fitted maximal effect; nearly all actives have a fitted effect of over 60% in size
# measurement-conditions: P. falciparum in erythrocytes, SYBR Green DNA, 72 h; series mostly up to 28.7 µM
Inconclusive results are not listed. The source made the active and inactive calls. Calls follow the shape of the dose curve; as a rule, active = well fitted inhibition curve with a large enough effect; inconclusive = small, poorly fitted or top-dose-only effect; inactive = flat fitted curve, though single readings scatter.
reported-metric: Potency

Worked cases, Potency given:
[
  {
    "compound": "CN1CCN(CCC=C2c3ccccc3Sc3ccc(S(=O)(=O)N(C)C)cc32)CC1",
    "Potency": "11.2 µM (active)"
  },
  {
    "compound": "O=C(CC1NCCC[C@H]1O)Cn1cnc2cc(Br)c(Cl)cc2c1=O (some centres undefined)",
    "Potency": "3.55 µM (active)"
  },
  {
    "compound": "CCOC(=O)C(CCc1ccccc1)NC1CCc2ccccc2N(CC(=O)O)C1=O (centres undefined)",
    "Potency": "10 µM (active)"
  }
]

Suppose we examine the compound `CC(C)C[C@@H](NC(=O)[C@H](Cc1ccccc1)NC(=O)c1cnccn1)B(O)O` ; what Potency value has been reported?
0.0794 µM (active)

* * *

# target-under-test: Atrial natriuretic peptide receptor 1 (Homo sapiens) (UniProt P16066)
# Sequence (P16066 whole entry, looked up): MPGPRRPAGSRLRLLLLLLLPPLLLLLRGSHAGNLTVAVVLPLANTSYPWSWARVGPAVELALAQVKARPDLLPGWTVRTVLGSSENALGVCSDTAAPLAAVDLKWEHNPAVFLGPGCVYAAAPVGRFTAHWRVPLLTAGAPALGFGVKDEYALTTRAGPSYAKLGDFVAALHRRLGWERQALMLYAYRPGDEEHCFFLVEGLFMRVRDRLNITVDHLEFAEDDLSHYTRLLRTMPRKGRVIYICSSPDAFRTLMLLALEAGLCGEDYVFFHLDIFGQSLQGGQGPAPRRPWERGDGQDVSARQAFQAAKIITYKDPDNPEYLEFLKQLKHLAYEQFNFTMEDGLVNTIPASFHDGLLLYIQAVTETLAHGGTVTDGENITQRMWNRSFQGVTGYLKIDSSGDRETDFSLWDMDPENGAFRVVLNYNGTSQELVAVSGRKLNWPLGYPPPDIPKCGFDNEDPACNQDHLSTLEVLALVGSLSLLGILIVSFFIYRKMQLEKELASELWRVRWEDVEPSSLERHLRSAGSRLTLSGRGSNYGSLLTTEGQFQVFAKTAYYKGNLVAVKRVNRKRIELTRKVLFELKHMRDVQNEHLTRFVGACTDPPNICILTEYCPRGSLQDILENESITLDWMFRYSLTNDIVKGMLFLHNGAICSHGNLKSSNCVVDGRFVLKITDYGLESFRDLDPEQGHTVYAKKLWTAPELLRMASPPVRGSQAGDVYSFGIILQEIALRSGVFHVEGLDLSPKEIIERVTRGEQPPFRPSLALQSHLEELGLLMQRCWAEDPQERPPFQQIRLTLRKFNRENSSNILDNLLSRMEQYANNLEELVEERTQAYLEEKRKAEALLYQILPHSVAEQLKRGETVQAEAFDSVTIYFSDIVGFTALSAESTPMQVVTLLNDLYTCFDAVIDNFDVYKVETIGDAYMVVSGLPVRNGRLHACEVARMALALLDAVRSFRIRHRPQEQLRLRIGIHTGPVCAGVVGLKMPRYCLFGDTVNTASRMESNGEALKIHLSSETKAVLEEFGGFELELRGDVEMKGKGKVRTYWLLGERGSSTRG
# assay-text: Natriuretic polypeptide receptor (hNpr1) antagonism - Pilot CMLD screen (AID 1347052);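 further: HEK293 cells with hNpr1 stimulated by hNppA peptide at 0.1 nM; cGMP level read as GloSensor luciferase luminescence after agonist stimulation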
# measurement-conditions: HEK293 hNpr1 GloSensor cGMP luminescence, ANP-stimulated; series mostly up to 9.22 µM
Inconclusive results are not listed. Calls of active or inactive are those of the source. Calls come from the whole dose curve.
reported-metric: outcome

Worked cases, outcome given:
[
  {
    "compound": "C#CCN1C(=O)[C@]2(O[C@H](COc3ccccc3)CC3=CCCC32)c2c(Br)cccc21 (stereo not given in full)",
    "outcome": "inactive"
  },
  {
    "compound": "CC(C)=CCCC(C)=CCN1C(=O)[C@]2(OCCC=C[C@H]2C)c2ccccc21",
    "outcome": "inactive"
  },
  {
    "compound": "COC(=O)C1=C(C)N(Cc2ccccc2)C(=NCCc2ccccn2)NC1c1cccc(F)c1 (stereo not given)",
    "outcome": "inactive"
  },
  {
    "compound": "C=CC1=C2C=C(C3CC3)N(C3CCCCC3)C=C2C(=O)C(C)(OC(=O)c2ccco2)C1=O (stereo not given)",
    "outcome": "inactive"
  }
]

Suppose we examine the compound `COC(=O)c1ccc(CN2C(=O)[C@@]3(CC(C)=CC[C@@H](C)O3)c3ccccc32)cc1` ; what outcome value has been reported?
inactive

* * *

# assay-text: qHTS for Inhibitors of Plasmodium falciparum (7G8) proliferation (AID 504316); further: nearly all actives have a fitted effect of over 65% in size
# measurement-conditions: P. falciparum 7G8 in erythrocytes, SYBR Green DNA, 72 h; series mostly up to 6.7 µM
# Excerpt: Plasmodium falciparum is a virulent malarial parasite that kills 1-2 million people worldwide each year. Malaria not only inflicts tremendous suffering and morbidity on the human population, but has dramatically influenced the course of civilization with profound sociological and economic implications (Shah, S. 2010). […] Because mature erythrocytes lack DNA, only Plasmodium-derived DNA is detected. […]
Records with an inconclusive call do not appear. The source made the active and inactive calls. Calls follow the shape of the dose curve; as a rule, active = well fitted inhibition curve with a large enough effect; inconclusive = small, poorly fitted or top-dose-only effect; inactive = flat fitted curve, though single readings scatter.
Pick from active, inactive when you respond.

// known answers, use as guide
[
  {
    "compound": "COCCN1C(=O)N[C@@H](CCc2ccccc2)[C@H](C(=O)OC)[C@H]1C",
    "qualitative-label": "inactive"
  },
  {
    "compound": "C=CC1=C2C=C(C3CC3)N(C3CCCCC3)C=C2C(=O)C(C)(OC(=O)c2ccco2)C1=O (stereo not given)",
    "qualitative-label": "inactive"
  },
  {
    "compound": "CCCCn1c(C)cc2c(c1=O)[C@H]1O[C@](CCCCN3C(=O)c4ccccc4C3=O)(Cc3ccccc31)O2",
    "qualitative-label": "active"
  },
  {
    "compound": "COC(=O)N[C@@H](C=Cc1ccco1)[C@]1(C(=O)OC)CCCC1=O",
    "qualitative-label": "inactive"
  },
  {
    "compound": "CCN1C(=NCCc2cccnc2)NC(CCc2ccccc2)C(C(=O)OC)=C1C (stereo not given)",
    "qualitative-label": "inactive"
  },
  {
    "compound": "Cc1ccc(C(O)C2=CCCC2=O)cc1 (stereo not given)",
    "qualitative-label": "inactive"
  },
  {
    "compound": "C=CCOC(=O)N[C@@H](CCc1ccccc1)C(C(C)=O)C(C)=O",
    "qualitative-label": "inactive"
  },
  {
    "compound": "C[C@@H]1C=CCCO[C@]12C(=O)N(Cc1ccc(F)cc1)c1cccc(Br)c12",
    "qualitative-label": "inactive"
  },
  {
    "compound": "COC(=O)CCCC1=CC2=CC(=O)C(C)(OC(=O)c3cccs3)C(=O)C2=CN1Cc1ccco1 (stereo not given)",
    "qualitative-label": "inactive"
  }
]

Let's switch to this compound now.
Per the assay record, what outcome was assigned to C=CCOC(=O)C(C(C)=O)[C@@H](NC(=O)OC)c1ccc(Cl)cc1 (stereo not given in full) ?
inactive
